# target-system: T1, β-catenin (UniProt P35222 1-781, limits assumed)
# T1 construct: also called beta-catenin
# T1 sequence (looked up): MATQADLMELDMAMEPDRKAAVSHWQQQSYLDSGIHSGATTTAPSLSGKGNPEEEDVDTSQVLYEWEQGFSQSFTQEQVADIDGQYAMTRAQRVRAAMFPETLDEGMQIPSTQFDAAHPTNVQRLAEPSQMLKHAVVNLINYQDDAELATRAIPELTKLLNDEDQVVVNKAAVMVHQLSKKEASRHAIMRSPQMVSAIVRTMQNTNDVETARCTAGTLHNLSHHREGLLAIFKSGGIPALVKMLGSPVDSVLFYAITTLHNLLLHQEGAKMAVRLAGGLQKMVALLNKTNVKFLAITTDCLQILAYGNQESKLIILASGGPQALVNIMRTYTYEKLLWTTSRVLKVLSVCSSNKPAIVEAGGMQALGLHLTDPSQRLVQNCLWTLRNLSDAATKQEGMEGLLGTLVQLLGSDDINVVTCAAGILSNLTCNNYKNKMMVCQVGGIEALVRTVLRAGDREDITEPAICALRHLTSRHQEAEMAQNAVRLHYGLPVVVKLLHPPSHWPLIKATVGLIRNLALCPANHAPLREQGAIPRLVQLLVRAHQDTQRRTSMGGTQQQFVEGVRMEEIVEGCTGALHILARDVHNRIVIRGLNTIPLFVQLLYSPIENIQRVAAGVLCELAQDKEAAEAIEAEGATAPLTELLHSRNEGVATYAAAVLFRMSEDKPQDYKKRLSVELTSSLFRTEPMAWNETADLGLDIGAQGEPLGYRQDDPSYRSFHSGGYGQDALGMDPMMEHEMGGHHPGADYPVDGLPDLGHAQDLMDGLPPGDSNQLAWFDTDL
# test-description: ALPHA Screen (BCL9/β-catenin);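 also: bead proximity readout with the polypeptide linked to donor beads and β-catenin fixed on acceptor beads, their binding bringing the beads close enough to emit signal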
Bridges are numbered along the chain shown (N, C = ends). Primed or numbered codes have the meaning given here. [ ]: non-standard residue; d: D form. The star is where a group is joined. S5′ = (S)-2-(4'-pentenyl)alanine, olefinic stapling residue closed by ring-closing metathesis; Diphenylacetyl = O=C(C(c1ccccc1)c1ccccc1)*; 2Nal = N[C@@H](Cc1ccc2ccccc2c1)C(=O)O; NMeQ = CN[C@@H](CCC(N)=O)C(=O)O; αMeL = CC(C)C[C@](C)(N)C(=O)O; Cba = N[C@@H](CC1CCC1)C(=O)O; S5 = C=CCCC[C@](C)(N)C(=O)O
reported-metric: IC50

>>> reported("Ac-LQTLR[S5]IQR[S5][αMeL][2Nal]-NH2 (staple 6-10; not fully specified (residue 2); printed as L(N-methylQ)TLRXIQRX(α-methylL)(2-Nal); also: N-methylQ at 2: D or L (both stated)) [SEQ ID NO: 172]")
"8 µM"
>>> reported("{4‑biphenyl acetic acid}-L[NMeQ]TLR[S5]IQR[S5][Cba][2Nal]-NH2 (staple 6-10; not fully specified) [SEQ ID NO: 143]")
"6.66 µM"
>>> reported("Diphenylacetyl-L[NMeQ]TLR[S5]IQR[S5][Cba][2Nal]-NH2 (staple 6-10; also: N-methyl-Gln at 2: filing says both D and L) [SEQ ID NO: 139]")
"4.58 µM"
>>> reported("Ac-HR[S5′]RSL[S5′]TLR[S5′]IQR[S5′][Cba][2Nal]-NH2 (staple 11-15, 3-7) [SEQ ID NO: 94]")
"0.175 µM"

The measured values listed here are drawn from patent US20200262867A1.
